Test system: OVCAR-4 ovarian
Experimental Protocol: NCI-60 one-dose screen, 48 h
Condition Info: 10 µM unless noted
Compounds without any hit were thinned out: in the full panel of roughly 83,000, 20% have a hit. The source made the active and inactive calls. How the source made its calls: active means growth percent below 10; inactive means the rest.
Thanks in advance; please answer with one of these: Y = active, N = inactive

QUERY: Status in this test for N#C/C(=C\c1cccc2c1OCO2)C(=O)Nc1sc2c(c1C#N)CCCC2 ?
RESULT: N

Further cases:
QUERY: Status in this test for CCN(CC)c1ccc(/C=N/NC(=O)c2ccc(S(N)(=O)=O)cc2)cc1 ?
RESULT: N

QUERY: Status in this test for COc1ccc([C@H]2C(=O)N(c3cc(OC)c(OC)c(OC)c3)[C@@H]2c2ccc(OC)c(O)c2)cc1 ?
RESULT: N

QUERY: Status in this test for O=C(CSc1nc2ccccc2c(=O)n1-c1ccc(Cl)cc1)N/N=C/c1ccc(Oc2ccc(Cl)cc2)cc1 ?
RESULT: Y

QUERY: Status in this test for COc1ccc(/C=N/NC(=O)CSc2nc(-c3cnccn3)cc(-c3cccs3)c2C#N)cc1OC ?
RESULT: N

###

Tested on: UO-31 renal
Experimental Protocol: NCI-60 one-dose screen, 48 h (100 = growth as untreated, 0 = no growth, -100 = all killed)
Condition Info: 10 µM unless noted
This is part of a sample that, as a whole, favours compounds with a hit. Of some 83,000 tested, about 20% had one in any assay.
Could you please report measured growth for the items listed next?
One number for each entry, in %.

# batch: return growth for each of the 2 molecules below
1. O=C1/C(=C/C=C/c2ccco2)SC(=S)N1Cc1ccccc1
2. CC(C)Sc1nc(-c2ccccc2)c(C#N)c(N2CCOCC2)n1

RESULT:
[83.9, 17.9]

# batch: return growth for each of the 7 molecules below
1. O=c1oc2ccc(-c3ccc(F)cc3F)cc2c(=O)n1-c1ccc(Br)cc1F
2. CN1CCN(c2ccc(Nc3nc(NCCCNS(=O)(=O)c4ccccc4)c4sccc4n3)cc2)CC1
3. O=C(CCCCCC/C=C\c1csc(Br)n1)NO
4. COC(=O)N1CCN(CCNCc2ccc(NC(=O)c3ccc(C)c(C#Cc4cnc5cccnn45)c3)cc2C(F)(F)F)CC1
5. COc1ccc(-c2c(C(N)=O)c(N)n(Cc3nc4ccccc4[nH]3)c(=O)c2C#N)c(OC)c1
6. CS(=O)(=O)c1ccc(/C(=N/N=C(N)N)c2ccc(Cl)cc2)cc1
7. CC(=O)N1N=C(c2cc3ccccc3oc2=O)CC1c1cn(-c2ccccc2)nc1-c1ccc(C)cc1 (stereo not given)

RESULT:
84.5
69.2
60.6
26.8
68
84.4
83.2

Record CCCCN1C(=O)/C(=c2\sc3n(c2=O)C2C(NN=3)N(CC)C(=O)N2CC)c2cc(C)ccc21 (stereo not given) , field growth: 75

###

System: K-562 leukemia
Experimental Protocol: NCI-60 one-dose screen, 48 h
Condition Info: 10 µM unless noted
About 83,000 compounds went through this panel and 20% of them were active in at least one assay; those are over-represented in the sample as a whole. The source made the active and inactive calls. How the source made its calls: active means growth percent below 10; inactive means the rest.
Thanks in advance; please answer with one of these: active, inactive

Please review the entries below; each comes with its answer.
QUERY: Status in this test for Cn1cc(C2=C(c3coc4cc(Br)ccc34)C(=O)NC2=O)c2ccccc21 ?
RESULT: inactive

QUERY: Status in this test for CC[C@]12CC(C(=O)OC)=C3Nc4ccccc4[C@@]34CCN(C14)[C@@H]1c3cc4c(cc3O[C@@H]1[C@H]2O)NC1=C(C(=O)OC)C[C@@]2(CC)C3N(CC[C@@]143)C[C@H]1O[C@H]12 (stereo not given in full) ?
RESULT: active

QUERY: Status in this test for O=C1/C(=C/c2cc(F)cc(F)c2)Cc2cc3c(cc21)OCO3 ?
RESULT: inactive

QUERY: Status in this test for COc1ccc(C(=O)c2c(N)c(C#N)cn2-c2ccc(Cl)cc2Cl)cc1 ?
RESULT: inactive

QUERY: Status in this test for Cc1nc(N)sc1-c1csc(Nc2ccc(C(F)(F)F)cc2)n1 ?
RESULT: inactive

QUERY: Status in this test for O=C1C(N2CCN(c3ccccc3)CC2)=C(Cl)C(=O)c2ncccc21 ?
RESULT: active

Further cases:
QUERY: Status in this test for CN1c2ccccc2Sc2cc(/C=N/Nc3ccnc4cc(Cl)ccc34)ccc21 ?
RESULT: active

QUERY: Status in this test for C#CCOc1cccc(/C(N)=N/C(N)=N/c2nc3ccccc3s2)c1 ?
RESULT: inactive

QUERY: Status in this test for CCC(=C(c1ccc(OCCN2CCCCCC2)cc1)c1ccc(OCCN2CCCCCC2)cc1)c1ccc(Cl)cc1 ?
RESULT: active

QUERY: Status in this test for C#C[C@]1(O)CC[C@H]2[C@@H]3CC=C4c5sc(Nc6cc(Cl)ccc6OC)nc5CC[C@]4(C)[C@H]3CC[C@@]21C ?
RESULT: active

###

Tested on: PC-3 prostate
Experimental Protocol: NCI-60 one-dose screen, 48 h (100 = growth as untreated, 0 = no growth, -100 = all killed)
Condition Info: 10 µM unless noted
About 83,000 compounds went through this panel and 20% of them were active in at least one assay; those are over-represented in the sample as a whole. Calls of active or inactive are those of the source. The calls were made as follows: active = growth percent below 10; inactive = the rest.
Assay Metric: growth

Record CC1CCN(CC(=O)Nn2c(COc3ccccc3)nc3ccccc3c2=O)CC1 , field growth: 94.3% (inactive)

# batch: return growth for each of the 2 compounds below
1. C#CCn1cc(/C=N/Nc2nc(-c3ccc(Br)cc3)cs2)c2ccccc21
2. CCOc1cccc(/C(N)=N/C(N)=N/c2nc3ccccc3s2)c1

RESULT:
1: 91.7% (inactive); 2: 46.4% (inactive)

###

Test system: MDA-MB-435 melanoma
Experimental Protocol: NCI-60 one-dose screen, 48 h (100 = growth as untreated, 0 = no growth, -100 = all killed)
Condition Info: 10 µM unless noted
Compounds without any hit were thinned out: in the full panel of roughly 83,000, 20% have a hit.
Assay Metric: growth (%)
Numbers only, in %.

Past entries and their recorded results:
Record Fc1ccc2nc(-c3cnn4cccnc34)sc2c1 , field growth: 108

Record COc1ccc(C(=O)c2c(N)c(C#N)cn2-c2ccc(Cl)cc2Cl)cc1 , field growth: 97.4

# batch: return growth for each of the 2 compounds below
1. CCC1=Cc2c(OC)cccc2OC12C=Cc1c(OC)cccc1O2 (stereo not drawn)
2. CC1(C)CC[C@]23CC[C@]4(C)[C@H](CC[C@@H]5[C@@]6(C)CC[C@H](N)C(C)(C)[C@@H]6CC[C@]54C)[C@H]2[C@H]1OC3

RESULT:
1. -18.8
2. 90.6

###

Could you please report measured growth for the items listed next?
Tested on: 786-0 renal
Experimental Protocol: NCI-60 one-dose screen, 48 h (100 = growth as untreated, 0 = no growth, -100 = all killed)
Condition Info: 10 µM unless noted
This is part of a sample that, as a whole, favours compounds with a hit. Of some 83,000 tested, about 20% had one in any assay.
Answers are plain numbers, in %.

Past entries and their recorded results:
Record CCOC(=O)c1c(NC(=O)c2ccc(C(F)(F)F)cc2)sc2c3c(ccc12)OCN(C)C3 , field growth: 30.8

Record CC1=C(C)C(=O)C(Nc2cccc(C(=O)OC(C)(C)C)c2)=CC1=O , field growth: 89.9

Record NS(=O)(=O)c1cccc(Nc2nc(SCC(=O)c3ccc(Cl)cc3)nc3c2CCC3)c1 , field growth: 82.5

Record C#CCOc1cccc(-c2nc(N)nc(Nc3ccccc3SSc3ccccc3Nc3nc(N)nc(-c4cccc(OCC#C)c4)n3)n2)c1 , field growth: 96.9

Record Cn1c(SCC(=O)c2ccc(Br)cc2)nc2ccccc2c1=O , field growth: 91.2

# batch: return growth for each of the 2 molecules below
1. Cc1[nH]c(C(=O)Nc2ccc(C(=O)NCC3CCNCC3)cc2OC(C)C)c(Cl)c1Cl
2. CN1CCN(c2ccc(Nc3nc(NCCNC(=O)c4ccccc4)c4sccc4n3)cc2)CC1

RESULT:
79.8
45.6

# batch: return growth for each of the 8 molecules below
1. O=C(CSc1nnc(-c2cccs2)n1-c1ccccc1)Nc1ccccc1
2. CCCNNC(=O)c1ccc(-c2ccc(NC(=O)CCCCCCC(=O)N[C@H](C(=O)N3C[C@H](O)C[C@H]3C(=O)N[C@@H](C)c3ccc(-c4scnc4C)cc3)C(C)(C)C)cc2)cc1
3. CC(=O)OCCCCN1C=C/C(=C\C(=O)n2ccc3ccccc32)c2ccccc21
4. COc1cc(-c2nc(-c3ccccc3)[nH]c2-c2ccnc(NCCCNS(=O)(=O)c3ccc(C)cc3)n2)ccc1F
5. COc1cc(-c2nc(-c3ccccc3)[nH]c2-c2ccnc(NCCCNS(=O)(=O)c3cccc(F)c3)n2)ccc1F
6. Cn1ncc2ncc(-c3ccc4ncc(C#N)c(N5CCc6cc(F)c(Cl)cc65)c4c3)cc21
7. CC(C)(C)c1cc(NC(=O)Nc2ccc(-c3cn4c5c(sc4n3)CCc3c[nH]cc3-5)cc2)no1
8. Cc1ccc(NC2=C(Cl)C(=O)c3nc(C)ccc3C2=O)c(C)c1

RESULT:
1: 85.1; 2: 36.9; 3: 107; 4: 94.5; 5: 98.4; 6: 21.8; 7: -29.4; 8: 23.7

# batch: return growth for each of the 3 molecules below
1. O=C(N/N=C\c1ccc(F)cc1)c1ccc2nc(-c3ccc(Br)cc3)[nH]c2c1
2. CCOC(=O)c1ccccc1NC1=C(Cl)C(=O)c2nc(C)ccc2C1=O
3. NC1=NC2(CCCC2)N(c2ccc(S(=O)(=O)Nc3nccs3)cc2)C(N)=N1

RESULT:
-32
104
105
